Experiment: qHTS assay to identify aromatase inhibitors - cell viability counter screen (AID 743084);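 also: cells stimulated with testosterone during compound exposure; % is scaled to controls: 0 for no effect and ±100 for the full control effect; nearly all actives have a fitted effect of over 55% in size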
Settings: MCF-7 aro ERE viability, CellTiter-Fluor, 24 h; series mostly up to 70.3 µM
Results filed as inconclusive are left out. Calls of active or inactive are those of the source. Calls follow the shape of the dose curve; as a rule, active = well fitted cell-killing curve with a large enough effect in the repeat runs; inconclusive = weak or mixed curves, or effect the other way; inactive = no such curve, though single readings can be large or run the other way.
endpointLabel: outcome

>>> endpointresult("CCOP(=S)(OCC)Oc1nc(Cl)n(C(C)C)n1")
"inactive"
>>> endpointresult("CNCC(=O)c1ccc(O)c(O)c1")
"inactive"
>>> endpointresult("CCOC(=O)N(C)C(=O)CSP(=S)(OCC)OCC")
"inactive"
>>> endpointresult("OC(c1ccc(F)cc1)(c1cncnc1)c1ccccc1Cl (centres undefined)")
"inactive"
>>> endpointresult("CCN(CC)C(C)C(=O)c1ccccc1 (centres undefined)")
"inactive"
>>> endpointresult("CN1CCN(C(=O)O[C@H]2c3nccnc3C(=O)N2c2ccc(Cl)cn2)CC1")
"inactive"
>>> endpointresult("CC(COc1ccc(Oc2ccccc2)cc1)Oc1ccccn1 (centres undefined)")
"inactive"
>>> endpointresult("COc1cc(OC)nc(Oc2cccc(Oc3nc(OC)cc(OC)n3)c2C(=O)O)n1")
"inactive"
>>> endpointresult("N#CCBr")
"inactive"

* * *

Experiment: qHTS assay for identifying genotoxic compounds that show differential cytotoxicity against isogenic chicken DT40 cell lines with known DNA damage response pathways - wild type cell line (AID 743012); also: nearly all actives have a fitted effect of over 60% in size
Details: DT40 wild type chicken cells viability, CellTiter-Glo, 40 h; series mostly up to 68.4 µM
Records with an inconclusive call do not appear. Calls of active or inactive are those of the source. Calls follow the shape of the dose curve; as a rule, active = well fitted cell-killing curve with a large enough effect in the repeat runs; inconclusive = weak or mixed curves, or effect the other way; inactive = no such curve, though single readings can be large or run the other way.
Labels: active, inactive

>>> class("CCC(=O)c1ccccc1")
"inactive"
>>> class("CCCSC(=O)N(CCC)CCC")
"inactive"
>>> class("CC(=O)C(Cl)Cl")
"inactive"
>>> class("CN1C[C@@H](NS(=O)(=O)N(C)C)C[C@@H]2c3cccc4c3c(cn4C)C[C@H]21")
"active"
>>> class("CN1CCN(C(=O)O[C@H]2c3nccnc3C(=O)N2c2ccc(Cl)cn2)CC1")
"inactive"
>>> class("CCOP(=S)(Oc1cnc(C(C)(C)C)nc1)OC(C)C (stereo not given)")
"active"
>>> class("O=[N+]([O-])c1cccc(O)c1")
"inactive"
>>> class("COP(N)(=S)Oc1ccccc1C(=O)OC(C)C (stereo not given)")
"inactive"
>>> class("O=C1CN=C(c2ccccc2)c2cc([N+](=O)[O-])ccc2N1")
"inactive"
>>> class("COc1ccc(C(=O)N2CCCC2=O)cc1")
"inactive"
>>> class("CC(C)(C)OC(=O)c1ncn2c1[C@@H]1CCCN1C(=O)c1c(Br)cccc1-2")
"active"
>>> class("CCOP(=S)(OCC)SCSP(=S)(OCC)OCC")
"active"
>>> class("CN1CCC(O)(c2ccc(F)cc2)C(C(=O)c2ccc(F)cc2)C1 (stereo not given)")
"active"
>>> class("Nc1cc2c3c(c1)C(c1ccccc1)=N[C@@H](NC(=O)c1cccnc1)C(=O)N3CC2")
"inactive"
>>> class("CC1=C(C(=O)Nc2ccccc2)S(=O)(=O)CCO1")
"active"
>>> class("CSc1ccc(C(=O)C(C)(C)N2CCOCC2)cc1")
"active"
>>> class("CCOP(=O)(OCC)OP(=O)(OCC)OCC")
"inactive"
>>> class("CC(C=O)Cc1ccc2c(c1)OCO2 (stereo not given)")
"inactive"
>>> class("CC(C)CC#N")
"inactive"
>>> class("CC(=O)CC(c1ccc(Cl)cc1)c1c(O)c2ccccc2oc1=O (stereo not given)")
"inactive"
>>> class("CC1(C)C(=O)NC(=O)NC1=O")
"inactive"
>>> class("c1cc[c]([Hg][c]2ccccc2)cc1")
"active"
>>> class("OC(c1ccccc1)(c1ccccc1)C1CCNCC1")
"active"
>>> class("[As]#[In]")
"inactive"
>>> class("CCOP(=S)(OCC)Oc1cc(-c2ccccc2)on1")
"active"
>>> class("CCSC(=O)N(CC)C1CCCCC1")
"inactive"
>>> class("COC(=O)C(c1ccccc1)C1CCCCN1 (stereo not given)")
"inactive"
>>> class("O=C(Nc1ccccc1)N(Cc1ccc(Cl)cc1)C1CCCC1")
"active"
>>> class("CCOP(=S)(OCC)Oc1ncn(-c2ccccc2)n1")
"active"
>>> class("CC(=O)CCc1ccc2c(c1)OCO2")
"inactive"
>>> class("Nc1cc(Cl)ccc1O")
"active"
>>> class("Cc1ccccc1CO[C@@H]1C[C@@]2(C(C)C)CC[C@]1(C)O2")
"active"
>>> class("CC1CN1P(=O)(N1CC1C)N1CC1C (stereo not given)")
"inactive"
>>> class("O=C(O)c1cccc(Cl)c1")
"inactive"
>>> class("OCCBr")
"inactive"
>>> class("CNC(=O)O/N=C(\\C)SC")
"inactive"
>>> class("CCCCOC(=O)[C@@H](C)Oc1ccc(Oc2ccc(C#N)cc2F)cc1")
"active"
>>> class("CCCCOC(=O)c1ccccc1N")
"inactive"
>>> class("Fc1ccc(C2(Cn3cncn3)OC2c2ccccc2Cl)cc1 (stereo not given)")
"active"
>>> class("CN(C)CCc1ccc(O)cc1")
"inactive"
>>> class("C[C@]12CC[C@H]3[C@@H](CC=C4C[C@@H](O)CC[C@@]43C)[C@@H]1CC[C@@H]2O")
"inactive"
>>> class("NC(=O)O")
"inactive"
>>> class("CCOP(=S)(OCC)SCSc1ccc(Cl)cc1")
"inactive"
>>> class("O=[N+]([O-])c1ccc2c3c(cccc13)CC2")
"inactive"
>>> class("N#CC(O)c1ccccc1 (stereo not given)")
"inactive"
>>> class("COc1ncc(F)c2nc(S(=O)(=O)Nc3c(F)cccc3F)nn12")
"inactive"
>>> class("CCC1(c2ccccc2)C(=O)N=C(O)NC1=O (stereo not given)")
"inactive"
>>> class("C#C[C@]1(O)C=C[C@H]2[C@@H]3CCC4=CC(=O)CC[C@@H]4[C@H]3CC[C@@]21CC")
"active"
>>> class("CCCCP(CCCC)CCCC")
"inactive"
>>> class("COCC(=O)N(c1c(C)cccc1C)N1CCOC1=O")
"inactive"
>>> class("O=C(CCN1CC1)OCC(CO)(COC(=O)CCN1CC1)COC(=O)CCN1CC1")
"inactive"
>>> class("CN(N=O)C(N)=O")
"inactive"
>>> class("CC1(C(=O)Nc2ccc(O)c(Cl)c2Cl)CCCCC1")
"active"
>>> class("CNCC(=O)c1ccc(O)c(O)c1")
"inactive"
>>> class("NC1=NC(=O)C(c2ccccc2)O1 (stereo not given)")
"inactive"

* * *

Assay: qHTS RealTime-Glo MT Cell Viability Assay in HEK293 cells - 40 hour (AID 1224874); also: % is scaled to controls: 0 for no effect and ±100 for the full control effect; nearly all actives have a fitted effect of over 50% in size
Settings: RealTime-Glo luminescence; active compounds read low
Records with an inconclusive call do not appear.
endpointLabel: max response (%)

>>> endpointresult("COP(N)(=S)Oc1ccccc1C(=O)OC(C)C (stereo not drawn)")
-8.89
>>> endpointresult("ClCCOCOCCCl")
-5.52
>>> endpointresult("CNC(=O)Oc1ccccc1C1OCCO1")
-0.764
>>> endpointresult("N#CCBr")
6.36
>>> endpointresult("ClCC(Cl)Cl")
-2.64
>>> endpointresult("OCCSCSCCO")
10.4
>>> endpointresult("Nc1cnn(-c2ccccc2)c(=O)c1Cl")
20.5
>>> endpointresult("O=[N+]([O-])c1ccc2c3c(cccc13)CC2")
1.98
>>> endpointresult("O=C(NCO)NCO")
2.7
>>> endpointresult("CC(C)(C)OC(=O)c1ncn2c1[C@@H]1CCCN1C(=O)c1c(Br)cccc1-2")
-21.6
>>> endpointresult("O=C(CCN1CC1)OCC(CO)(COC(=O)CCN1CC1)COC(=O)CCN1CC1")
0.103
>>> endpointresult("O=NN1CCCCC1")
1.37
>>> endpointresult("Fc1cc(Br)ccc1CBr")
-0.0441

* * *

Assay: qHTS RealTime-Glo MT Cell Viability Assay in HEK293 cells - 8 hour (AID 1224887); also: nearly all actives have a fitted effect of over 50% in size
Settings: RealTime-Glo luminescence; series mostly up to 76.8 µM
Inconclusive results are not listed. Active and inactive are the calls of the source. The call rests on the fitted dose curve; in most records, active means well fitted cell-killing curve with a large enough effect in the repeat runs; inconclusive means weak or mixed curves, or effect the other way; inactive means flat fitted curve, though single readings scatter.
Outcome codes: T for active, F for inactive

>>> class("CCc1cc2c(s1)-n1c(C)nnc1CN=C2c1ccccc1Cl")
"F"
>>> class("ClC(Cl)C(Cl)Cl")
"F"
>>> class("Clc1ccccc1N1CCNCC1")
"F"
>>> class("ClC(Cl)(Cl)C(Cl)(Cl)Cl")
"F"
>>> class("O=C(Nc1ccccc1)c1ccccc1I")
"F"
>>> class("C[C@H]1CCC[C@H](O)CCCCCc2cc(O)cc(O)c2C(=O)O1")
"T"
>>> class("CCN(Cc1ccc(Cl)nc1)/C(=C/[N+](=O)[O-])NC")
"F"
>>> class("BrCCCCCCBr")
"F"
>>> class("Nc1cnn(-c2ccccc2)c(=O)c1Cl")
"F"
>>> class("CC1(C)C(=O)NC(=O)NC1=O")
"F"
>>> class("COC(=O)COc1ccc(Cl)cc1Cl")
"F"
>>> class("O=C(Nc1ccccc1)N(Cc1ccc(Cl)cc1)C1CCCC1")
"T"
>>> class("CN1CCN(C(=O)O[C@H]2c3nccnc3C(=O)N2c2ccc(Cl)cn2)CC1")
"F"
>>> class("CCOC(=O)C1(c2ccccc2)CCN(CCc2ccc(N)cc2)CC1")
"F"
